- tgt: RSV F on RSV-A2 virus (Respiratory syncytial virus (RSV-A2))
- assay-protocol: cell-based or functional assay
Reported Neutralization IC50 (RSV subtype A) values follow for various binders
observed-property: Neutralization IC50 (RSV subtype A)

{"binder": "ADI-41235 (antibody, V domains shown) VH: QVQLQQWGAGLLKPSETLSLTCGVYGESFSGHYWSWIRQPPGKGLEWMGEIHHSGTTNYNPSLKSRVTISVDTSKNQFSLKLNSVTAADTAVYYCARNPAEDILTGYSPPFHYYYMDVWGKGTTVTVSS VL: QSVLTQPPSVSGAPGQRVTISCTGSSSNIGAGYDVHWYQQIPGTAPKLLIHSNNNRPSGVPDRFSGSKSGTSASLAITGLQAEDEADYYCQSYDSSLSVVFGGGTKLTVL", "assay-value": "> 25 µg/mL"}
{"binder": "ADI-41294 (antibody, V domains shown) VH: EVQLLESGGGLVQPGGSLRLSCAASGFTFSAYEMNWVRQAPGKGLEWVSYISSSGSNKHYADSVKGRFTISRDNAKNSLHLHMNSLRAEDTALYYCTRPHQEEWELLPNDAFDLWGQGTMVTVSS VL: QSALTQPPSASGSPGQSVTISCTGTSTDVGAYTYVSWYQQHPGKAPKLIIYEVYKRPSGVPNRFFGSKSGNTASLTVSGLQAEDEADYYCSSYGGSNNFGLFGGGTKLIVL", "assay-value": "0.0805 µg/mL"}
{"binder": "ADI-41347 (antibody, V domains shown) VH: EVQLVESGPGLVKPSGTLSLTCAVSGGSVSSDNWWSWVRQPPGKGIEWIGEIYPSGGTNYNPSLNSRVTISVDKSKNQFSLKLNSVTAADTAIYYCARAPFDSSGYHSNSVWGQGTLVTVSS VL: ETTLTQSPLSLPVTPGEPASISCRSSQSLLHSNGHNYLDWYVQKPGQSPQLLIYLSSNRASGVPDRFSGSGSGTDFTLRISRVEAEDVGVYYCMQPLQTPQTFGQGTKVEIK", "assay-value": "> 25 µg/mL"}
{"binder": "ADI-41303 (antibody, V domains shown) VH: QVQLVQSGGGLVRPGGSLRVSCAASGFIFNNYALTWVRQAPGKGLEWVSAISGSGSSTYYADSVKGRFTISRENSNNRLYLQLSGLRAEDTAVYFCARVRGLVWFEGRIDPYPNVFDYWGQGTLVTVSS VL: DIVLTQSPGTLSLSPGERATLSCRASQSVSNDYLAWYQQKPGQAPRLLIYDASSRAIGIPDRFSGSGSGTDFTLIISRLEPEDFAVYYCHHPGKFGQGTKVEIK", "assay-value": "> 25 µg/mL"}
{"binder": "ADI-41340 (antibody, V domains shown) VH: QVQLVQSGAEVKTPGSSVKVSCKASGGTFRSYPITWVRQAPGQGLEWMGTVIPVFDTVNYAPKFQGRVSITADESTNTAYMELSSLRSDDSAVYYCARDLGWLRPMTTVTSPHFDYWGQGTLVTVSS VL: QSVLTQPASVSGSPGQSITISCTGTSSDVGGYDFVSWYQQHPGKAPKLMISEVTDRPSGVSNRFSGSKSGNTASLTISGLQAEDEADYYCTSYTSSRTYVFGTGTKLTVL", "assay-value": "> 25 µg/mL"}

# credit: patent US20260258115A1
